tested on: UACC-257 melanoma; assay: NCI-60 one-dose screen, 48 h (100 = growth as untreated, 0 = no growth, -100 = all killed); details: 10 µM unless noted
This is part of a sample that, as a whole, favours compounds with a hit. Of some 83,000 tested, about 20% had one in any assay.
recorded_metric: growth (%)
Give bare numbers, in %.

Items follow; give growth for each.
1. O=C(O)c1cccnc1Br
2. O=C1C[C@H](Sc2nc(-c3ccc(F)cc3)cc(C(F)(F)F)n2)[C@H]2CO[C@@H]1O2

Result:
[106, 104]

Items follow; give growth for each.
1. C/C(=C(/c1ccc(O)cc1)c1ccc(OCCN(C)C)cc1)c1ccccc1
2. CC[C@]12C=CCN3CC[C@@]4(c5ccc(OC)cc5N(C)[C@H]4[C@@](O)(C(=O)OC)[C@@H]1OC(=O)CCC(=O)N[C@@H](Cc1c[nH]c4ccccc14)C(=O)OC)[C@@H]32
3. Cc1cc(Nc2nc(N3CCN(C)CC3)nc3ccccc23)n[nH]1
4. Cc1cc(-c2nc3ccccc3s2)ccc1NC(=O)COc1ccc(Cl)cc1
5. COCCOC(=O)C1=C(C)NC(=S)NC1c1ccc2c(c1)OCO2 (configuration not stated)

Result:
1. 78.1
2. 67
3. 82.9
4. 120
5. 90.2
